- System Tested: human adenosine A2b receptor (Homo sapiens (Human))
- Sequence (P29275 whole entry): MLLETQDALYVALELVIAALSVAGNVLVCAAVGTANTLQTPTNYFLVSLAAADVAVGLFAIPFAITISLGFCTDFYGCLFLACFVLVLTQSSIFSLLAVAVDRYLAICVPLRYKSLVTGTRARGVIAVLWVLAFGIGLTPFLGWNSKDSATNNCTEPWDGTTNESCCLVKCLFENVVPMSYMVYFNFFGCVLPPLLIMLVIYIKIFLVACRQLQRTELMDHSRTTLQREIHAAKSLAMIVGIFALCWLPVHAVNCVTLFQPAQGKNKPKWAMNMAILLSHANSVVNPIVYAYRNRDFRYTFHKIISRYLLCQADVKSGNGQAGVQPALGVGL
- Assay Overview: Cellular in vitro reporter gene test for A2b receptor activity (CHO-K1, CRE-luciferase, NECA stimulation)
- Type: cell-based
- Test Parameters: recombinant CHO-K1 cell line, CRE-luciferase reporter, antagonism of EC50 concentration of NECA; in some cases means of several determinations, rounded to two significant figures; read-out: A2b receptor IC50
pIC50: −log10 of the molar value.
The entries below come with measured pIC50 values attached.
Property Measured: pIC50

1) CCn1c(=O)c2c(C)c(Cn3c(C)c[nH]c3=O)sc2n(CCOC)c1=O :: 8.39
2) Cc1c(CN2CCNC2=S)sc2c1c(=O)n(CC(F)(F)F)c(=O)n2CC1CCCO1 (racemic) [Example 157] :: 8.24
3) COCCn1c(=O)n(CC(F)(F)F)c(=O)c2c(C)c(CN3CCNC3=S)sc21 :: 7.92
4) Cc1c(CN2CCNC2=S)sc2c1c(=O)n(CC(C)(C)C)c(=O)n2CCC(F)(F)F :: 8.29
5) CCn1c(=O)c2c(C)c(CN3CCNC3=S)sc2n(CCOC2CC2)c1=O :: 7.92
6) CCOCCn1c(=O)n(CC(F)(F)F)c(=O)c2c(C)c(CN3CCNC3=O)sc21 :: 7.60
7) Cc1c(CN2CCNC(=O)C2=O)sc2c1c(=O)n(C(C)C)c(=O)n2CC1CCO1 (single isomer, unassigned) [Example 399] :: 7.59
8) Cc1c(CN2CCNC2=S)sc2c1c(=O)n(CC(F)(F)F)c(=O)n2CC1CCCO1 (single isomer, unassigned) [Example 300] :: 7.85
9) CCn1c(=O)c2c(C)c(CN3CCNC3=S)sc2n(CF)c1=O :: 8.08
10) Cc1c(CN2CCNC2=S)sc2c1c(=O)n(CC(F)F)c(=O)n2CCC(F)(F)F :: 8.54
11) Cc1c(CN2CCNC(=O)C2=O)sc2c1c(=O)n(C(C)C)c(=O)n2CC1CCCO1 (racemic) [Example 480] :: 7.46
12) Cc1c(CN2CCNC(=O)C2=O)sc2c1c(=O)n(C(C)C)c(=O)n2CC1CCCO1 (single isomer, unassigned) [Example 481] :: 6.85
13) COC(C)Cn1c(=O)c2c(C)c(CN3CCNC3=NC#N)sc2n(CCC(F)(F)F)c1=O (single isomer, unassigned) [Example 455] :: 8.44
14) CCn1c(=O)c2c(C)c(Cn3cc[nH]c3=O)sc2n(CC2CCCO2)c1=O (single isomer, unassigned) [Example 243] :: 7.85
15) CCn1c(=O)c2c(C)c(CN3C(=O)CNC3=O)sc2n(CCOC(F)(F)F)c1=O :: 8.04
16) Cc1c(CN2CCNC2=NC#N)sc2c1c(=O)n(CC(F)(F)F)c(=O)n2CC1CCO1 (single isomer, unassigned) [Example 449] :: 7.27
17) COCCn1c(=O)n(CCc2ccccc2)c(=O)c2c(C)c(CN3CCCC3=O)sc21 :: 8.36
18) COCCn1c(=O)c2c(C)c(CN3CCNC3=NC(=O)OC)sc2n(CCOC)c1=O :: 7.80
19) CCn1c(=O)c2c(C)c(CN3CCNC3=O)sc2n(CC2CCCO2)c1=O (racemic) [Example 68] :: 8.05
20) CCn1c(=O)c2c(C(F)F)c(CN3CCNC3=O)sc2n(CCC(F)(F)F)c1=O :: 8.17
21) CCn1c(=O)c2c(C)c(CN3CCNC3=NC#N)sc2n(CC2CCCO2)c1=O (single isomer, unassigned) [Example 261] :: 8.00
